# pIC50 annotations
# target-under-test: MMP-3 (Homo sapiens, UniProt P08254)
# Construct: Truncated Prostromelysin-257 was expressed in a soluble form in E.coli; made in house; host or cells: E. coli
# Sequence (P08254 100-274 limits assumed): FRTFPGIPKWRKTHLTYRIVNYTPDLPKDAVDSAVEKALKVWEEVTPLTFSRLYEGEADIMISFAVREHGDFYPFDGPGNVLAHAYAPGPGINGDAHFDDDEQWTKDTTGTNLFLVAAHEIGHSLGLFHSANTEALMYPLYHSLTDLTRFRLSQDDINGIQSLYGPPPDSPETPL
# test-summary: Automated MMP Profiling Assay, MMP-3 fluorogenic
# Assay type: biochemical
# protocol-conditions: 96-well automated, P218
// pIC50: -log10(molar conc.)

Record CCCCNC(=O)c1ccc(CCC(CC(=O)c2ccc(-c3ccc(Cl)cc3)cc2)C(=O)O)cc1 (stereo not shown) . Reported pIC50: 6.44

The reported pIC50 of the compound O=C(C[C@@H](CCN1C(=O)c2ccccc2C1=O)C(=O)O)c1ccc(-c2ccc(Cl)cc2)cc1 was 5.99

Lab note: measured pIC50 of O=C(O)c1ccccc1S[C@H]1CC[C@H](C(=O)c2ccc(-c3ccc(Cl)cc3)cc2)[C@H]1C(=O)O (relative stereo) was 7.52

// recorded pIC50 for O=C(CC(CCc1ccccc1)C(=O)O)c1ccc(-c2ccc(O)cc2)cc1 (stereo not shown) : 6.11

# pIC50 of O=C(CC(CCCc1ccccc1)C(=O)O)c1ccc(-c2ccc(Br)cc2)cc1 (stereo not shown) = 6.52

Kindly note the recorded pIC50 for O=C(CC(CCCc1ccccc1)C(=O)O)c1ccc(-c2ccc(OCc3ccncc3)cc2)cc1 (stereo not shown) , which is 7.74

In plain terms, CCCCCOc1ccc(-c2ccc(C(=O)CC(CCN3C(=O)c4ccccc4C3=O)C(=O)O)cc2)cc1 (stereo not shown) has a documented pIC50 of 8.04

The compound listed as CCN(CC)C(=O)c1cccc(CC[C@@H](CC(=O)c2ccc(-c3ccc(Cl)cc3)cc2)C(=O)O)c1 has a reported pIC50 of 8.12

Entry CCCCOc1ccc(-c2ccc(C(=O)CC(CCc3ccccc3)C(=O)O)cc2)cc1 (stereo not shown) , pIC50 reported as 6.83

Numbers sourced from patent US5789434A.
